Molecular target: α1B-AR (Homo sapiens)
Construct: human receptor from pcDNA3.1+ plasmid, stably expressed in rat PC12 cells
Sequence (P35368 1-520): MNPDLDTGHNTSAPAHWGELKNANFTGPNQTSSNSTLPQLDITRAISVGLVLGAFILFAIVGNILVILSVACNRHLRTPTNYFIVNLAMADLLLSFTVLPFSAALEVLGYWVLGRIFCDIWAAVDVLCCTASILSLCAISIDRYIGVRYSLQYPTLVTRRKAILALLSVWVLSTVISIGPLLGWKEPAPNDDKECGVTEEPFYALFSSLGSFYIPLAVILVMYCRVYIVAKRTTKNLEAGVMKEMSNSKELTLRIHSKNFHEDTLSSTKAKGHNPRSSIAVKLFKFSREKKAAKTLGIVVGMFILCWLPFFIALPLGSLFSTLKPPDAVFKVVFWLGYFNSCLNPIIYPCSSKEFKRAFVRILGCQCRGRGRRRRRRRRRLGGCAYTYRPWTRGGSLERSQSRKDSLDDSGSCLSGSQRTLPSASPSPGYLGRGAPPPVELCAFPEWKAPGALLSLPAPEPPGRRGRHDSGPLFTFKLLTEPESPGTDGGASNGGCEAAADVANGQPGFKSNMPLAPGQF
Test: IP-One HTRF inositol phosphate accumulation, PC12 cells
readout.type: pIC50
The read-out pIC50 is expressed as -log10 of concentration in moles per litre.

Reported pIC50 for α1B-AR (Homo sapiens), given CN(C)CCCN1c2ccccc2CCc2ccccc21 ? 5.09

Reported pIC50 for α1B-AR (Homo sapiens), given CNCCCN1c2ccccc2CCc2ccccc21 ? 5.10

Every entry's value here was drawn from paper PMC8124549.
